Kindly state Serum metabolite for each of the entries shown.
Species: Mus musculus
Assay Notes: Compound was evaluated for its potency in CDF1 mice and the serum metabolite levels were determined
Type: ADME, organism-based
Your answer should be a number followed by the unit of measure.

Below, 3 compounds whose answers are already recorded.
CC(C)CCC[C@@H](C)[C@H]1CC[C@H]2[C@@H]3CC[C@@H]4CC(=O)CC[C@]4(C)[C@H]3CC[C@]12C :: 22 mg/dL
CC(C)CCC[C@@H](C)[C@H]1CC[C@H]2[C@@H]3CC=C4CCCC[C@]4(C)[C@H]3CC[C@]12C :: 0 mg/dL
CC(C)CCC[C@@H](C)[C@H]1CC[C@H]2[C@@H]3CC(=O)C4=CC(=O)CC[C@]4(C)[C@H]3CC[C@]12C :: 0 mg/dL

Next compound, please.
Tell me measured Serum metabolite for CC(C)CCC[C@@H](C)[C@H]1CC[C@H]2[C@@H]3CCC4=CC(=O)C=C[C@]4(C)[C@H]3CC[C@]12C please.
0 mg/dL

###

Organism: Mus musculus
Assay Notes: Compound was evaluated for its potency in CDF1 mice and the serum cholesterol levels were determined
Format: ADME, organism-based
Value Kind: Serum cholesterol (mg/dL)
One number for each entry, in mg/dL.

CC(C)CCC[C@@H](C)[C@H]1CC[C@H]2[C@@H]3C=CC4=CC(=O)CC[C@]4(C)[C@H]3CC[C@]12C :: 112.7
CC(C)CCC[C@@H](C)[C@H]1CC[C@H]2[C@@H]3CC[C@H]4CC(O)CC[C@]4(C)[C@H]3CC[C@]12C (stereo partly drawn) :: 148.1
CC(C)CCC[C@@H](C)[C@H]1CC[C@H]2[C@@H]3CCC4=CC(=O)C=C[C@]4(C)[C@H]3CC[C@]12C :: 165.4
CC(=O)OC1=CC2=CC[C@H]3[C@@H]4CC[C@H]([C@H](C)CCCC(C)C)[C@@]4(C)CC[C@@H]3[C@@]2(C)CC1 :: 187.5
CC(C)CCC[C@@H](C)[C@H]1CC[C@H]2[C@@H]3CC[C@H]4CC(=O)CC[C@]4(C)[C@H]3CC[C@]12C [CHOLESTAN-3-ONE] :: 134.1

Field: Serum cholesterol. Fill in for each record below.
1. CC[C@H](CC[C@@H](C)[C@H]1CC[C@H]2[C@@H]3CCC4=CC(=O)CC[C@]4(C)[C@H]3CC[C@]12C)C(C)C
2. CC(C)CCC[C@@H](C)[C@H]1CC[C@H]2[C@@H]3CC=C4CCCC[C@]4(C)[C@H]3CC[C@]12C
3. CC(C)CCC[C@@H](C)[C@H]1CC[C@H]2[C@@H]3CC=C4C=C(N5CCCC5)CC[C@]4(C)[C@H]3CC[C@]12C
4. CC(C)CCC[C@@H](C)[C@H]1CC[C@H]2[C@@H]3CC[C@@H]4CC(=O)CC[C@]4(C)[C@H]3CC[C@]12C

1: 164.6; 2: 165.8; 3: 158.1; 4: 161.3

###

Kindly state Feed consumption for each of the entries shown.
Species: Mus musculus
Assay Notes: Evaluated for potency in CDF1 mice and the ability of it to decrease feed consumption was determined
Format: functional
Give bare numbers, in g/day.

Below, 2 compounds whose answers are already recorded.
CC(C)CCC[C@@H](C)[C@H]1CC[C@H]2[C@@H]3CCC4C[C@@H](O)CC[C@]4(C)[C@H]3CC[C@]12C (stereo partly drawn) :: 5.83
CC(C)CCC[C@@H](C)[C@H]1CC[C@H]2[C@@H]3CC(=O)C4=CC(=O)CC[C@]4(C)[C@H]3CC[C@]12C :: 6

Next compound, please.
Tell me measured Feed consumption for CC(C)CCC[C@@H](C)[C@H]1CC[C@H]2[C@@H]3CC[C@@H]4CC(O)CC[C@]4(C)[C@H]3CC[C@]12C (stereo partly drawn) please.
6.1

###

Species: Mus musculus
Assay Notes: Compound was evaluated for its potency in CDF1 mice and the serum cholesterol levels were determined
Format: ADME, organism-based
Value Kind: Serum cholesterol (mg/dL)
One number for each entry, in mg/dL.

CC(C)CCC[C@@H](C)[C@H]1CC[C@H]2[C@@H]3CC=C4CC(=O)CC[C@]4(C)[C@H]3CC[C@]12C [CHOLEST-5-EN-3-ONE] :: 122.1
CC(C)CCC[C@@H](C)[C@H]1CC[C@H]2[C@@H]3CCC4=CC(=O)CC[C@]4(C)[C@H]3CC[C@]12C [4-CHOLESTEN 3-ONE] :: 115.8
CC(C)CCC[C@@H](C)[C@H]1CC[C@H]2[C@@H]3C=CC4=CC(=O)C=C[C@]4(C)[C@H]3CC[C@]12C :: 206.3

Next compound, please.
Tell me measured Serum cholesterol for CC(C)CCC[C@@H](C)[C@H]1CC[C@H]2[C@@H]3CC(=O)C4=CC(=O)CC[C@]4(C)[C@H]3CC[C@]12C please.
110
